We begin with a simple list: items and their reported pKd.
# target: T1, human [1-305]-mouse chimeric EL (human; mouse, UniProt Q9WVG5 306-500)
# T1 construct: Heparin extract, captured or detected by an anti-C2-tag antibody; also called human-mouse chimeric EL
# T1 sequence: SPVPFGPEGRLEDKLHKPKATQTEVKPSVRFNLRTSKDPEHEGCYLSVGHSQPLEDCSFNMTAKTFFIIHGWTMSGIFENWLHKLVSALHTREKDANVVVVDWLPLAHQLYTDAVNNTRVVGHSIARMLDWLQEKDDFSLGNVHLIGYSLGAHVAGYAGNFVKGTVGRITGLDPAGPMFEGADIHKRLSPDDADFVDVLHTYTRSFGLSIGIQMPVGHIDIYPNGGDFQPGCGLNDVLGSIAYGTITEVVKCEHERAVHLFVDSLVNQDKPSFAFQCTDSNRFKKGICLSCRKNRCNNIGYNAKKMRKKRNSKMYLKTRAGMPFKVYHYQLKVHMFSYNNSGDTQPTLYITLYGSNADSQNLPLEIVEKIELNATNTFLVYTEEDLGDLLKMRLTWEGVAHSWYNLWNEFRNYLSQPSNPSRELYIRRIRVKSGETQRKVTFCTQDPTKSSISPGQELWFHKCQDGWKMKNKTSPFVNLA
# procedure_details: Biacore; EL captured by anti-C2-tag Ab; bivalent fit
Scale: pKd equals -log10([C]), with [C] in mol/L.

| binder | pKd |
| --- | --- |
| h55A1-S4 (antibody, V domains shown, humanized) VH: QVQLVQSGSELKKPGASVKVSCKASGYTFTNYAMNWVRQAPGQGLEWMGWINTYSGVGTYAGDFKGRFVFSLDTSVSTAYLQISSLKAEDTAVYYCARRGFYGRRFFDVWGKGTTVTVSS VL: DIVLTQSPASLAVSPGQRATITCKASQSVDYDVDSYMHWYQQKPGQPPKLLIYAASNLASGVPARFSGSGSGTDFTLTINPVEANDTANYYCQQTIEDPPTFGGGTKVEIK | 8.52 |
| h16B3-S3 (antibody, V domains shown, humanized) VH: EVQLVESGGGLVQPGGSLRLSCAASGFTFSGYTMSWVRQAPGKGLEWVSEISFARDRAFYPDTVKGRFTISRDNSKNTLYLQMNSLRAEDTAVYYCARLGGKNHDFWYFDVWGQGTTVTVSS VL: DIVMTQSPDSLAVSLGERATINCRASESVEYYGTSLMQWYQQKPGQPPKLLIYAASNVESGVPDRFSGSGSGTDFTLTISSLQAEDVAVYYCQQSWKVPFTFGQGTKLEIK | 8.35 |

Turning now to a further binder:
The reported value for h55A1-S7 (antibody, V domains shown, humanized) VH: QVQLVQSGSELKKPGASVKVSCKASGYTFTNYALNWVRQAPGQGLEWMGWINTYSGVGTYAGEFKGRFVFSLDTSVSTAYLQISSLKAEDTAVYYCARRGFYGRRFFDVWGKGTTVTVSS VL: DIVLTQSPASLAVSPGQRATITCKASQSVDYDVDSYMHWYQQKPGQPPKLLIYAASNLASGVPARFSGSGSGTDFTLTINPVEANDTANYYCQNTIEDPPTFGGGTKVEIK in terms of pKd is 8.29
